These data points were gathered from patent US10428041B2.

- Test system: HBV replication in HepG2-2.2.15 cells
- assayMethodText: Inhibition of HBV replication dot-blot assay
- Type: cell-based
- conditionContext: Hepatitis B virus, 144 h, reduction in HBV DNA levels, six days
pEC50: −log10 of the molar value.
Give pEC50 for every item shown.

O=C(Nc1ccc(F)c(Cl)c1)c1ccnc(NS(=O)(=O)CC2CC2)c1; > 5.00
O=C(Nc1ccc(F)c(Cl)c1)c1ccnc(NS(=O)(=O)CCc2ccccc2)c1; > 5.00
CS(=O)(=O)Nc1cc(C(=O)Nc2ccc(F)c(Cl)c2)ccn1; > 5.00

Proceed to the following item.
# pEC50 of O=C(Nc1ccc(F)c(Cl)c1)c1ccnc(NS(=O)(=O)CCC2CC2)c1 = > 5.00
